Attribution: PubChem BioAssay (Tox21)

assay: G protein-coupled receptor (GPCR) small molecule agonists, calcium flux assay: HEK293 wild type cell line counter screen (AID 1920065); settings: HEK293 WT calcium flux, fluorescence, agonist mode; series mostly up to 57.6 µM; also: % is scaled to controls: 0 for no effect and ±100 for the full control effect
The source made the active and inactive calls. Calls follow the shape of the full dose curve.
quantity.measured: activation

{"compound": "NCC(=O)O", "quantity.measured": "activation", "test.value": "-1.52% [at 11.8 µM] (inactive)"}
{"compound": "COc1ccc2sc(C(=O)Nc3nnn[nH]3)c(OC(C)C)c2c1", "quantity.measured": "activation", "test.value": "inactive"}
{"compound": "COc1cc(C)ccc1C(C)C", "quantity.measured": "activation", "test.value": "inactive"}
{"compound": "CCO[Si](C)(CCCOCC1CO1)OCC (stereo not given)", "quantity.measured": "activation", "test.value": "inactive"}
{"compound": "O=C(O)c1ccc[n+]([O-])c1", "quantity.measured": "activation", "test.value": "inactive"}
{"compound": "CCCCc1ccc(N)cc1", "quantity.measured": "activation", "test.value": "inactive"}
{"compound": "C=CC(C)(CCC=C(C)C)OC(=O)C(C)C (stereo not given)", "quantity.measured": "activation", "test.value": "inactive"}
{"compound": "CCCCCCCCCCCCS(=O)(=O)Cl", "quantity.measured": "activation", "test.value": "-1.76% [at 11.8 µM] (inactive)"}
{"compound": "CCCCC(CC)C(=O)OC(C)C (stereo not given)", "quantity.measured": "activation", "test.value": "inactive"}
{"compound": "CNS(=O)(=O)CCc1ccc2[nH]cc(C3CCN(C)CC3)c2c1", "quantity.measured": "activation", "test.value": "inactive"}
{"compound": "Cc1cscn1", "quantity.measured": "activation", "test.value": "inactive"}
{"compound": "O=C(/C=C/c1ccc(O)c(O)c1)O[C@@H]1C[C@](O)(C(=O)O)C[C@@H](O)[C@H]1O", "quantity.measured": "activation", "test.value": "inactive"}
{"compound": "O=C(OC1C[C@H]2CC[C@@H](C1)[N+]21CCCC1)C(O)(c1ccccc1)c1ccccc1 (stereo not given in full)", "quantity.measured": "activation", "test.value": "inactive"}
{"compound": "OC[C@@H](O)C(O)[C@@H](O)CO (stereo not given in full)", "quantity.measured": "activation", "test.value": "inactive"}
{"compound": "CC(COc1ccccc1)NC(C)C(O)c1ccc(O)cc1 (stereo not given)", "quantity.measured": "activation", "test.value": "inactive"}
{"compound": "COc1ccc(N)c([N+](=O)[O-])c1", "quantity.measured": "activation", "test.value": "inactive"}
{"compound": "CN=C(N)NC(=O)Nc1c(C)cccc1C", "quantity.measured": "activation", "test.value": "inactive"}
{"compound": "COc1c(C)c2c(c(O)c1C/C=C(\\C)CCC(=O)OCCN1CCOCC1)C(=O)OC2", "quantity.measured": "activation", "test.value": "inactive"}
{"compound": "CCn1cc(C(=O)O)c(=O)c2cc(F)c(N3CCNCC3)cc21", "quantity.measured": "activation", "test.value": "inactive"}
{"compound": "CN(C)CCN1C(=O)c2ccccc2N(C)c2ccccc21", "quantity.measured": "activation", "test.value": "inactive"}
{"compound": "CC1c2ccccc2CN1NC(=O)c1ccc(Cl)c(S(N)(=O)=O)c1 (stereo not given)", "quantity.measured": "activation", "test.value": "inactive"}
{"compound": "C=CC(=O)OCC(O)COc1ccccc1 (stereo not given)", "quantity.measured": "activation", "test.value": "inactive"}
{"compound": "ClC(Cl)(Br)Br", "quantity.measured": "activation", "test.value": "inactive"}
{"compound": "COC(=O)c1ccc(OC)cc1", "quantity.measured": "activation", "test.value": "inactive"}
{"compound": "CCN(CCO)CCCC(C)Nc1ccnc2cc(Cl)ccc12 (stereo not given)", "quantity.measured": "activation", "test.value": "-1.14% [at 5.23 µM] (inactive)"}
{"compound": "CCOCCn1c(C2CCN(CCc3ccc(C(C)(C)C(=O)O)cc3)CC2)nc2ccccc21", "quantity.measured": "activation", "test.value": "inactive"}
{"compound": "c1cc(N(CC2CO2)CC2CO2)ccc1Cc1ccc(N(CC2CO2)CC2CO2)cc1 (stereo not given)", "quantity.measured": "activation", "test.value": "inactive"}
{"compound": "O=C(OCC(COC(=O)c1ccccc1)(COC(=O)c1ccccc1)COC(=O)c1ccccc1)c1ccccc1", "quantity.measured": "activation", "test.value": "inactive"}
{"compound": "CCCCC", "quantity.measured": "activation", "test.value": "inactive"}
{"compound": "CCCOC(=O)c1ccc(N)cc1", "quantity.measured": "activation", "test.value": "inactive"}
{"compound": "CCCCCCCCCC=O", "quantity.measured": "activation", "test.value": "inactive"}
{"compound": "Nc1nc(N)nc(-c2cc(Cl)ccc2Cl)n1", "quantity.measured": "activation", "test.value": "inactive"}
{"compound": "Cc1ccc2sc3cccc(C)c3c2c1", "quantity.measured": "activation", "test.value": "inactive"}
{"compound": "CC(C)CCCCCCc1ccc(OCCOCCO)cc1", "quantity.measured": "activation", "test.value": "inactive"}
{"compound": "O=C1c2ccccc2C(=O)C1c1ccc2ccccc2n1", "quantity.measured": "activation", "test.value": "inactive"}
{"compound": "CCOC(=O)C(=O)CCCCCCl", "quantity.measured": "activation", "test.value": "inactive"}
{"compound": "CCC(CO)(CO)[N+](=O)[O-]", "quantity.measured": "activation", "test.value": "inactive"}
{"compound": "O=[N+]([O-])c1ccc(/C=N\\O)o1", "quantity.measured": "activation", "test.value": "inactive"}
{"compound": "NC(=O)N(O)[C@@H]1C=C[C@H](Oc2cccc(Oc3ccc(F)cc3)c2)C1", "quantity.measured": "activation", "test.value": "inactive"}
{"compound": "CCc1cccc(CC)c1", "quantity.measured": "activation", "test.value": "inactive"}
{"compound": "O=C1c2ccccc2C(=O)C1c1ccccc1", "quantity.measured": "activation", "test.value": "inactive"}
{"compound": "CCN(CC)CCOC(=O)C(Cc1cccc2ccccc12)CC1CCCO1 (stereo not given)", "quantity.measured": "activation", "test.value": "inactive"}
{"compound": "C[C@@H]1[C@H](O)[C@@H](C)/C=C/C=C\\C=C\\C=C\\C=C\\C=C\\C=C\\[C@H](O[C@@H]2O[C@H](C)[C@@H](O)[C@H](N)[C@@H]2O)C[C@@H]2O[C@](O)(C[C@@H](O)C[C@@H](O)[C@H](O)CC[C@@H](O)C[C@@H](O)CC(=O)O[C@H]1C)C[C@H](O)[C@H]2C(=O)O (stereo in doubt)", "quantity.measured": "activation", "test.value": "inactive"}
{"compound": "CCN(CC)CCSC(=O)C(c1ccccc1)c1ccccc1", "quantity.measured": "activation", "test.value": "inactive"}
{"compound": "COc1cc(OC)nc(NC(=O)NS(=O)(=O)Nc2ccccc2C(=O)N(C)C)n1", "quantity.measured": "activation", "test.value": "inactive"}
{"compound": "CC(C)C[C@@H](N)C(=O)O", "quantity.measured": "activation", "test.value": "-0.27% [at 11.8 µM] (inactive)"}
{"compound": "C=CCON/C(CCC)=C1\\C(=O)CC(C)(C)C(C(=O)OC)=C1O", "quantity.measured": "activation", "test.value": "inactive"}
{"compound": "Cc1ccc(N(CCO)CCO)cc1", "quantity.measured": "activation", "test.value": "inactive"}
{"compound": "CC(C)(C)NCC(O)COc1cccc2c1C[C@H](O)[C@H](O)C2 (stereo not given in full)", "quantity.measured": "activation", "test.value": "inactive"}
{"compound": "CN1CCC(=C2c3ccccc3C=Cc3ccccc32)CC1", "quantity.measured": "activation", "test.value": "inactive"}
